Tested on: Caco-2
Assay: cell viability relative to DMSO; higher = less toxic
Details: 72 h; 100 nM
cell viability for assorted compounds
Quantity: cell viability (%)

smiles_text=C=C1c2cccc(O)c2C(=O)C2=C(O)[C@]3(O)C(=O)C(C(N)=O)=C(O)[C@@H](N(C)C)[C@@H]3[C@@H](O)[C@H]12 unit_symbol=% val=99.7
smiles_text=FC(F)(F)C(F)(F)C(F)(F)N(C(F)(F)C(F)(F)C(F)(F)F)C(F)(F)C(F)(F)C(F)(F)F unit_symbol=% val=95
smiles_text=CCCCCCCCCCCCCCCC(=O)C(F)(F)F unit_symbol=% val=104
smiles_text=CCOc1ccc(Cc2cc([C@]34OC[C@](CO)(O3)[C@@H](O)[C@H](O)[C@H]4O)ccc2Cl)cc1 unit_symbol=% val=90.5

====

cell viability for assorted compounds
Test system: Calu-3
Assay: cell viability relative to DMSO; higher = less toxic
Details: 72 h; 100 nM
Quantity: cell viability (%)

compound="CC(C)(S)C(N)C(=O)O (stereo in doubt) [penicillamine-(racemic)]" quantity="cell viability" unit_symbol=% val=98.3
compound=C[C@@H]1COCCN1c1cc(=O)n2c(n1)N(Cc1cncc(Cl)c1)[C@H](C(F)(F)F)CC2 quantity="cell viability" unit_symbol=% val=109
compound="O=C(O)c1cc(O)c2c(c1)[C@H]([C@H]1c3cc(C(=O)O)cc(O)c3C(=O)c3c(O[C@@H]4O[C@H](CO)[C@@H](O)[C@H](O)[C@H]4O)cccc31)c1cccc(O[C@@H]3O[C@H](CO)[C@@H](O)[C@H](O)[C@H]3O)c1C2=O [sennoside-A]" quantity="cell viability" unit_symbol=% val=90.1
compound="CC(C)NC[C@@H](O)COc1ccc(CC(N)=O)cc1 (racemic) [atenolol-(+/-)]" quantity="cell viability" unit_symbol=% val=96.5
compound=Cc1nc(-c2cccnc2)sc1C(=O)Nc1ccccc1-c1cn2c(CN3CCOCC3)csc2n1 quantity="cell viability" unit_symbol=% val=102
compound=CC(C)c1ccc2oc3nc(N)c(C(=O)O)cc3c(=O)c2c1 quantity="cell viability" unit_symbol=% val=104
compound="CCCCCCCCCCOc1cc2c(O)c(C(=O)OCC)cnc2cc1OCC [decoquinate]" quantity="cell viability" unit_symbol=% val=106
compound="CCOC(=O)NNc1ccc(N(CC)CC(C)O)nn1 (stereo not drawn)" quantity="cell viability" unit_symbol=% val=91.6
compound=O=C1Nc2ccccc2/C1=C1/Nc2ccccc2C1=O quantity="cell viability" unit_symbol=% val=109
compound=O=C1NC(c2ccccc2)(c2ccccc2)C(=O)N1COP(=O)(O)O quantity="cell viability" unit_symbol=% val=90.4
compound=O=C(CC(c1ccccc1)c1ccccc1)N1CCN(C(c2ccccc2)c2ccccc2)CC1 quantity="cell viability" unit_symbol=% val=104
compound=CC(C)NCCCn1c(Sc2cc3c(cc2I)OCO3)nc2c(N)ncnc21 quantity="cell viability" unit_symbol=% val=100
compound=COc1ccc([C@@H]2CC(=O)c3c(O)cc(O[C@@H]4O[C@H](CO[C@@H]5O[C@@H](C)[C@H](O)[C@@H](O)[C@H]5O)[C@@H](O)[C@H](O)[C@H]4O)cc3O2)cc1O quantity="cell viability" unit_symbol=% val=91.6
compound=Cc1cc(C)cc(NC(=O)Nc2ccc(OS(N)(=O)=O)cc2)c1 quantity="cell viability" unit_symbol=% val=92.7
compound=Nc1nc(Nc2ccc(S(N)(=O)=O)cc2)nn1C(=O)c1c(F)cccc1F quantity="cell viability" unit_symbol=% val=98.1
compound=CCS(=O)(=O)c1cccc(-c2cc(C(=O)NC3CCN(C)CC3)c(C)c3[nH]c4ncc(C)cc4c23)c1 quantity="cell viability" unit_symbol=% val=95.5
compound=COc1ccc2c(Oc3ccc(NC(=O)c4c(C)n(CC(C)(C)O)n(-c5ccccc5)c4=O)nc3)ccnc2c1 quantity="cell viability" unit_symbol=% val=100
compound=O=C(O)C(=O)Nc1cccc(-c2nnn[nH]2)c1 quantity="cell viability" unit_symbol=% val=91.3
compound=C[C@]12CC[C@H](O)C[C@H]1CC[C@@H]1[C@@H]2C[C@@H](O)[C@]2(C)[C@@H](C3=CC(=O)OC3)CC[C@]12O quantity="cell viability" unit_symbol=% val=101
compound=Cc1c(CC(C)(C)C(=O)O)n(Cc2ccc(Cl)cc2)c2ccc(F)cc12 quantity="cell viability" unit_symbol=% val=96.1
compound="CNc1cc(OC)c(C(=O)NC2CCN(Cc3ccccc3)C2C)cc1Cl (stereo not drawn) [nemonapride]" quantity="cell viability" unit_symbol=% val=92.6
compound=COc1ccc(C(=O)/C(Cc2cc(OC)c(OC)c(OC)c2)=C(\C(=O)O)c2ccc3c(c2)OCO3)cc1 quantity="cell viability" unit_symbol=% val=101
compound=Cc1n[nH]c(C)c1Cc1sc2c(c1C(=O)N1C[C@H](O)CO1)c(=O)n(C)c(=O)n2CC(C)C quantity="cell viability" unit_symbol=% val=99.4
compound=O=C(O)[C@H]1O[C@@H](Oc2cc3oc(-c4ccccc4)cc(=O)c3c(O)c2O)[C@H](O)[C@@H](O)[C@@H]1O quantity="cell viability" unit_symbol=% val=90.4
compound="CCc1cc(Cl)c(OC)c(C(=O)NC[C@@H]2CCCN2CC)c1O [eticlopride]" quantity="cell viability" unit_symbol=% val=103
compound="NCCCS(=O)(=O)O [tramiprosate]" quantity="cell viability" unit_symbol=% val=95
compound=COC(=O)c1ccc(N2CCN(C)CC2)c(NC(=O)c2cccc(OC)c2)c1 quantity="cell viability" unit_symbol=% val=99.5
compound=C/N=C(/NC#N)NCCSCc1csc(NC(=N)N)n1 quantity="cell viability" unit_symbol=% val=91.7
compound="CC(C)CC(NC(=O)OCC1c2ccccc2-c2ccccc21)C(=O)O (stereo in doubt)" quantity="cell viability" unit_symbol=% val=107
compound=O=C(/C=C\n1cnc(-c2cc(C(F)(F)F)cc(C(F)(F)F)c2)n1)N1CC(F)(F)C1 quantity="cell viability" unit_symbol=% val=97.2
compound=C[C@]12CC[C@H](O)C[C@H]1CC[C@@H]1[C@@H]2CC[C@]2(C)[C@@H](C3=CC(=O)OC3)CC[C@]12O quantity="cell viability" unit_symbol=% val=104
compound="O=C1NCC2(CCN(CCc3ccccc3)CC2)O1 [fenspiride]" quantity="cell viability" unit_symbol=% val=85
compound=O=C(O)c1cc2ccccc2s1 quantity="cell viability" unit_symbol=% val=106

====

System: Calu-3
Experiment: drug sensitivity score (DSS) for viability; higher = more toxic; extreme values may be limits of the assay
Details: 72 h
Structures can show the parent of a compound that is named as a salt.
Quantity: drug sensitivity score

compound="N#CC(Cc1ccc(O)cc1)c1ccc(O)cc1 (stereo unspecified) [diarylpropionitrile]" quantity="drug sensitivity score" val=0
compound="NCC(=O)N1C[C@H](NC(=O)c2ccccc2)C[C@H]1C(=O)O [danegaptide]" quantity="drug sensitivity score" val=0
compound="CN1CCN(c2c(F)cc3c(=O)c(C(=O)O)cn4c3c2SCC4)CC1 [rufloxacin]" quantity="drug sensitivity score" val=0
compound="CC(=O)/N=c1/[nH]c(C)c(-c2ccc(Cl)c(S(=O)(=O)NCCO)c2)s1 [PIK-93]" quantity="drug sensitivity score" val=5.3
compound="CC(C)=CCC[C@](C)(O)[C@@H]1CC=C(C)CC1 [levomenol]" quantity="drug sensitivity score" val=0
compound="COc1ccc(-n2c(C)c([N+](=O)[O-])c3ccc(O)cc32)cc1 [ID-8]" quantity="drug sensitivity score" val=2.6
compound="CO[C@H]1CC[C@H](N2C(=O)CNc3ncc(-c4ccc(C(C)(C)O)nc4)nc32)CC1 [CC-223]" quantity="drug sensitivity score" val=6.6
compound="C=C1/C(=C\\C=C2/CCC[C@]3(C)[C@@H]([C@H](C)/C=C/[C@H](C)C(C)C)CC[C@@H]23)C[C@@H](O)C[C@@H]1O [doxercalciferol]" quantity="drug sensitivity score" val=0
compound=Cc1n[nH]c(C)c1Cc1sc2c(c1C(=O)N1C[C@H](O)CO1)c(=O)n(C)c(=O)n2CC(C)C quantity="drug sensitivity score" val=0
compound="COc1ccc(C(CN(C)C)C2(O)CCCCC2)cc1 (stereo unspecified) [venlafaxine]" quantity="drug sensitivity score" val=0
compound="C[C@]12CC[C@H](O)C[C@H]1CC[C@@H]1[C@@H]2C[C@@H](O)[C@]2(C)[C@@H](C3=CC(=O)OC3)CC[C@]12O [digoxigenin]" quantity="drug sensitivity score" val=5.3
compound="O=C1C2CCN(CC2)C1(CO)CO [PRIMA1]" quantity="drug sensitivity score" val=0.6
compound="c1cc2c(cc1[C@H]1OC[C@H]3[C@@H]1CO[C@@H]3c1ccc3c(c1)OCO3)OCO2 [sesamin]" quantity="drug sensitivity score" val=0
compound="O=C(O)[C@H](O)[C@@H](O)[C@H](O[C@@H]1O[C@H](CO)[C@H](O)[C@H](O)[C@H]1O)[C@H](O)CO [maltobionic-acid]" quantity="drug sensitivity score" val=0
compound="O=c1n(CC2CO2)c(=O)n(CC2CO2)c(=O)n1CC1CO1 (stereo unspecified) [teroxirone]" quantity="drug sensitivity score" val=0
compound="CC/C(=C(\\c1ccc(O)cc1)c1ccc(OCCNC)cc1)c1ccccc1 [Endoxifen HCl]" quantity="drug sensitivity score" val=5.3
compound="FC(F)(F)C(F)(F)C(F)(F)N(C(F)(F)C(F)(F)C(F)(F)F)C(F)(F)C(F)(F)C(F)(F)F [perfluamine]" quantity="drug sensitivity score" val=0
compound="CN1CCN(c2ccc3nc(-c4c(N)c5c(F)cccc5[nH]c4=O)[nH]c3c2)CC1 [dovitinib]" quantity="drug sensitivity score" val=0.9
compound="O=C(O)CCC(=O)OC[C@@H](NC(=O)C(Cl)Cl)[C@H](O)c1ccc([N+](=O)[O-])cc1 [chloramphenicol-sodium-succinate]" quantity="drug sensitivity score" val=0
compound="CCCSc1nc(N[C@@H]2C[C@H]2c2ccc(F)c(F)c2)c2nnn([C@@H]3C[C@H](OCCO)[C@@H](O)[C@H]3O)c2n1 [ticagrelor]" quantity="drug sensitivity score" val=0
compound="CN1CCC[C@@H]1CCSc1ccc(O)cc1 [SIB-1553A]" quantity="drug sensitivity score" val=0
compound="COc1cc2cc(c1Cl)N(C)C(=O)C[C@H](OC(=O)C(C)C)[C@]1(C)O[C@@H]1[C@H](C)[C@@H]1C[C@@](O)(NC(=O)O1)[C@H](OC)/C=C/C=C(\\C)C2 [ansamitocin-p-3]" quantity="drug sensitivity score" val=27.7
compound="O=C1C(O)=C([C@H]2CC[C@H](c3ccc(Cl)cc3)CC2)C(=O)c2ccccc21 [atovaquone]" quantity="drug sensitivity score" val=0
compound="c1nc2c(NC3CCCCC3)nc(Nc3ccc(N4CCOCC4)cc3)nc2[nH]1 [reversine]" quantity="drug sensitivity score" val=1
compound="C[C@H]1O[C@@H](n2cc(F)c(=O)[nH]c2=O)[C@H](O)[C@@H]1O [doxifluridine]" quantity="drug sensitivity score" val=0
compound="CNC(=O)c1ccccc1Nc1cc(Nc2ccc(N3CCOCC3)cc2OC)ncc1C(F)(F)F [VS-4718]" quantity="drug sensitivity score" val=6.6
compound="C=C(c1ccccc1OCc1cccc(Cl)c1)n1ccnc1 [croconazole]" quantity="drug sensitivity score" val=0
compound="O=C(O)c1cc2ccccc2s1 [BL-5583]" quantity="drug sensitivity score" val=0
compound="CC[C@H](C)[C@H]1O[C@]2(CC[C@@H]1C)C[C@@H]1C[C@@H](C/C=C(\\C)[C@@H](O[C@H]3C[C@H](OC)[C@@H](O[C@H]4C[C@H](OC)[C@@H](O)[C@H](C)O4)[C@H](C)O3)[C@@H](C)/C=C/C=C3\\CO[C@@H]4[C@H](O)C(C)=C[C@@H](C(=O)O1)[C@]34O)O2 [ivermectin]" quantity="drug sensitivity score" val=0
compound=C[C@H](NC(=O)Cc1cc(F)cc(F)c1)C(=O)N[C@@H]1C(=O)N(C)c2ccccc2-c2ccccc21 quantity="drug sensitivity score" val=0
compound=C[C@H](NC(=O)[C@@H](O)c1cc(F)cc(F)c1)C(=O)N[C@@H]1C(=O)N(C)c2ccccc2-c2ccccc21 quantity="drug sensitivity score" val=0
